Assay: Ratio of drug level in brain to plasma in C57/6J mouse at 5 mg/kg, po by turboflow chromatography
Assay type: ADME, organism-based
Set-up: dose 5 mg/kg, route oral
Conditions: brain and plasma

>  <SMI>
O=C(NC1CCCC1)c1ccc(C#Cc2ccccc2)nc1

>  <Kp>
0.5

$$$$

###

Assay: Aqueous solubility at pH 7.4
Type: physicochemical
Conditions: aqueous medium

>  <SMI>
O=C(NC1CCCC1)c1ccc(C#Cc2ccccc2)nc1

>  <solubility (µM)>
1.7

$$$$

###

Molecular target: Metabotropic glutamate receptor 5 (Homo sapiens, UniProt P41594)
Sequence (P41594 whole entry): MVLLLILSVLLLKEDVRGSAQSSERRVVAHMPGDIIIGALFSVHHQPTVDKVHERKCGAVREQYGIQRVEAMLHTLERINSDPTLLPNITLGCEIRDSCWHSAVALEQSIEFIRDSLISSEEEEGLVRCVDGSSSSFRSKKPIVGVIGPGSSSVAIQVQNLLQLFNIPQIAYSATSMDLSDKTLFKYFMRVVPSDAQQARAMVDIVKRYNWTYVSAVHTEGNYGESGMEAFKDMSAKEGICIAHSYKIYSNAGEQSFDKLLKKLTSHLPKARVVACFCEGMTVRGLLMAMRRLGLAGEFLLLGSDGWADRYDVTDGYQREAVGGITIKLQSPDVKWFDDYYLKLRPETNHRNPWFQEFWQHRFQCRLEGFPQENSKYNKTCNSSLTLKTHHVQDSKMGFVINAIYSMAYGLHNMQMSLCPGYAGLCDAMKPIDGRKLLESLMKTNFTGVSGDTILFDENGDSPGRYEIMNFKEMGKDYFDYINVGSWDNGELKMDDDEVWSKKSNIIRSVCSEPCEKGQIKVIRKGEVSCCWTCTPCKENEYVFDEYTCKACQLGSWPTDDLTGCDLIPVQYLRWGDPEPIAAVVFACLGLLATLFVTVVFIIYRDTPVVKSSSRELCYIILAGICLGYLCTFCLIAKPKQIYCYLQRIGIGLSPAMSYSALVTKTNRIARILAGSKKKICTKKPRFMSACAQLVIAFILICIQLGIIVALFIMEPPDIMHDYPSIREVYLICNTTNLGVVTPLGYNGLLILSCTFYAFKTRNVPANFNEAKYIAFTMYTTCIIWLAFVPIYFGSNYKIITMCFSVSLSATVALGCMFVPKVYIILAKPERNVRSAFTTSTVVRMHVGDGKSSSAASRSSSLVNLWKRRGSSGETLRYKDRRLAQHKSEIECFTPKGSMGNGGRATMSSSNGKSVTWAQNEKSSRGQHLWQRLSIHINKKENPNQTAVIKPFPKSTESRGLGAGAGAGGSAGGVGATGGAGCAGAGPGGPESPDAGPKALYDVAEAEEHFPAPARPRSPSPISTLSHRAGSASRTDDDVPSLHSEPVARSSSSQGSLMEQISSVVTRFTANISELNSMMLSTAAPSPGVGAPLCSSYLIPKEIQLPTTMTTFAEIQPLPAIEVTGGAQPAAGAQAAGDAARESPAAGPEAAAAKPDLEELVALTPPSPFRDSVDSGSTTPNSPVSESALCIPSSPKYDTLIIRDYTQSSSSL
Experiment: Agonist activity at human mGluR5 transiently transfected in BHK cells assessed as potentiation of L-glutamate-induced calcium flux by FLIPR assay
Assay type: functional, cell-based
Entries and their measured EC50 follow.

>  <MOLECULE>
C(#Cc1ccc(C(N2CCOCC2)N2CCOCC2)cc1)c1ccccc1

>  <MEASUREMENT_UNITS>
nM

>  <EC50>
970

$$$$
>  <MOLECULE>
CC1CCC(NC(=O)c2ccc(C#Cc3ccccc3)nc2)CC1 (stereo unspecified)

>  <MEASUREMENT_UNITS>
nM

>  <EC50>
1200

$$$$
>  <MOLECULE>
CC1CCN(C(=O)c2ccc(C#Cc3ccccc3)cc2)CC1

>  <MEASUREMENT_UNITS>
nM

>  <EC50>
720

$$$$
>  <MOLECULE>
O=C(NC1CCCCC1)c1ccc(C#Cc2ccccc2)nc1

>  <MEASUREMENT_UNITS>
nM

>  <EC50>
240

$$$$
>  <MOLECULE>
O=C(c1ccc(C#Cc2ccccc2)nc1)N1CCCCC1

>  <MEASUREMENT_UNITS>
nM

>  <EC50>
280

$$$$
>  <MOLECULE>
O=C(NC1CCCC1)c1ccc(C#Cc2ccccc2)nc1

>  <MEASUREMENT_UNITS>
nM

>  <EC50>
30

$$$$
>  <MOLECULE>
O=C(NCc1ccsc1)c1ccc(C#Cc2ccccc2)cc1

>  <MEASUREMENT_UNITS>
nM

>  <EC50>
1200

$$$$
>  <MOLECULE>
O=C(NCc1ccco1)c1ccc(C#Cc2ccccc2)nc1

>  <MEASUREMENT_UNITS>
nM

>  <EC50>
180

$$$$
>  <MOLECULE>
NC(=O)c1ccc(C#Cc2ccccc2)nc1

>  <MEASUREMENT_UNITS>
nM

>  <EC50>
6600

$$$$
>  <MOLECULE>
CN1CCN(C(=O)c2ccc(C#Cc3ccccc3)nc2)CC1

>  <MEASUREMENT_UNITS>
nM

>  <EC50>
1600

$$$$
>  <MOLECULE>
CC1CCN(C(=O)c2ccc(C#Cc3ccccc3)nc2)CC1

>  <MEASUREMENT_UNITS>
nM

>  <EC50>
130

$$$$
>  <MOLECULE>
O=C(c1ccc(C#Cc2ccccc2)nc1)N1CCSCC1

>  <MEASUREMENT_UNITS>
nM

>  <EC50>
46

$$$$
>  <MOLECULE>
CC(C)CCNC(=O)c1ccc(C#Cc2ccccc2)nc1

>  <MEASUREMENT_UNITS>
nM

>  <EC50>
510

$$$$
>  <MOLECULE>
O=C(c1ccc(C#Cc2ccccc2)nc1)N1CCOCC1

>  <MEASUREMENT_UNITS>
nM

>  <EC50>
990

$$$$
>  <MOLECULE>
O=C(NCc1ccsc1)c1ccc(C#Cc2ccccc2)nc1

>  <MEASUREMENT_UNITS>
nM

>  <EC50>
140

$$$$
>  <MOLECULE>
CN1CCN(C(=O)c2ccc(C#Cc3ccccc3)cc2)CC1

>  <MEASUREMENT_UNITS>
nM

>  <EC50>
3100

$$$$

###

Test: Ratio of drug level in brain to plasma in Lister Hooded rat at 2.5 mg/kg, po by turboflow chromatography
Type: ADME, organism-based
Parameters: dose 2.5 mg/kg, route oral
Conditions: brain and plasma
ASSAY_READOUT: Kp

>  <SMI>
O=C(NC1CCCC1)c1ccc(C#Cc2ccccc2)nc1

>  <ASSAY_READOUT>
Kp

>  <REPORTED>
0.3

$$$$

###

Assay: Elimination half life in C57/6J mouse at 5 mg/kg, po
Format: ADME, organism-based
Set-up: dose 5 mg/kg, route oral
Details: in vivo, read-out: beta t1/2 (converted)
ASSAY_READOUT: half-life (h)

>  <SMI>
O=C(NC1CCCC1)c1ccc(C#Cc2ccccc2)nc1

>  <REPORTED>
1

$$$$

###

Molecular target: Metabotropic glutamate receptor 5 (Homo sapiens)
Experiment: Displacement of [3H]MPEP from human recombinant mGluR5 expressed in BHK cells at by radioligand binding assay
pKi: −log10 of the molar value.

>  <SMI>
O=C(NC1CCCC1)c1ccc(C#Cc2ccccc2)nc1

>  <STUDY_TARGET>
Metabotropic glutamate receptor 5 (Homo sapiens)

>  <pKi>
5.74

$$$$
